Target: GLP-1R (Homo sapiens)
Sequence (P43220 24-463): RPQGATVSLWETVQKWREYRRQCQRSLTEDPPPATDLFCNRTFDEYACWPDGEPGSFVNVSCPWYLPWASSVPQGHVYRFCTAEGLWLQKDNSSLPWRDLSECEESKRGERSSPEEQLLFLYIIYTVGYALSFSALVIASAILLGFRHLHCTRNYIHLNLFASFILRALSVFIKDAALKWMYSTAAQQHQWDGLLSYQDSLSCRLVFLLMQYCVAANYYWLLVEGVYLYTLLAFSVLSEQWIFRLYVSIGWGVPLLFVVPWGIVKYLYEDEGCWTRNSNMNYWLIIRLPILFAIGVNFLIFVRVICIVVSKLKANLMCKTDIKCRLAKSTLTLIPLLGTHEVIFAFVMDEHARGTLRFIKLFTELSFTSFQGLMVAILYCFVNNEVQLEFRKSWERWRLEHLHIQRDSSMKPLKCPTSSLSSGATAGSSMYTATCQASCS
Sequence (P01275 100-127 partner limits assumed): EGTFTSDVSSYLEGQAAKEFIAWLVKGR
Assay: EC20 GLP-1(9-36) PAM cAMP assay: dose response of compound in the presence of fixed concentration of GLP-1(9-36)
Conditions: GLP-1R CRE-bla CHO-K1 cells, compound dose response in presence of fixed concentration of GLP-1(9-36)
We begin with a simple list: items and their reported EC50.

Entry `CCCCCCCOc1ccc(-c2cnc(-c3ccc(C[C@H](NC(=O)c4cnn(C(C)C)c4)C(=O)O)cc3)nc2)cc1` : reported EC50 = ?
800 to 2500 nM

Try `CC(C)Oc1ccc(C(=O)N[C@@H](Cc2ccc(-c3ncc(-c4ccc(C(C)(C)C)cc4)cn3)cc2)C(=O)O)cc1` next.
800 to 2500 nM

All values here come from patent US8778923B2.
